procedure_summary: S. cerevisiae growth modulation with rapamycin, primary screen, strain BY4716, OD600, 96 h (AID 1091); also: test concentration not given here
condition_label: higher = more signal, called active from +8 up or from −8 down
We begin with a simple list: items and their reported z-score.
I'd appreciate a reply containing only the number, no unit.

CC(C)c1ccc(NN2C(C(O)c3ccc4c(c3)OCO4)C=CC3C(=O)N(c4ccccc4)C(=O)C32)cc1 (configuration not stated) = 0.599
C[C@@H](c1ccccc1)N1C(=O)[C@H]2[C@H]3[C@H](O)[C@H](O)CC(=NOC[C@@H](O)COCc4ccco4)[C@@H]3CC[C@H]2C1=O = 1.3
CCN1C(=O)[C@H]2[C@H]3[C@H](O)C=CC(=O)[C@@H]3CC[C@H]2C1=O = -0.624
COc1ccc(O[C@H]2C=C[C@@H](c3ccccc3)O[C@@H]2COC(=O)CCC(C)=NO[C@H](C)c2cn([C@@H]3COC[C@H]3O)nn2)cc1 = -0.56
COCCOC(=O)N1C(=O)[C@@]2(c3cc(C#Cc4ccc(OC)cc4)ccc31)[C@H](c1ccc(O)cc1)N1[C@H](c3ccccc3)[C@H](c3ccccc3)OC(=O)[C@H]1[C@@H]2C(N)=O = -0.0092
CCOC(=O)NN=C1C[C@@H](O)[C@@H](O)[C@@H]2[C@@H]3C(=O)N(C4CCCCC4)C(=O)[C@@H]3CC[C@@H]12 = -0.495

Query molecule follows.
Reported z-score for [N-]=[N+]=NCc1ccccc1[C@@H]1OC(c2ccc(OCCCO)cc2)=N[C@]1(Cc1ccccc1)C(=O)N1CCOCC1 : what is it?
0.303
